System: Danio rerio larvae (5 dpf)
Experiment: difference in habituation to acoustic stimuli vs DMSO (percentage points); higher = more habituation than DMSO
Conditions: 10 µM; exposure time 6 h
Counter-ions that a name gives are not always drawn.
Examples of molecules with documented difference in habituation to acoustic stimuli follow.
// return just the number, without any unit appended

Molecule	Measured Result
CC(C)NCC(O)c1ccc(O)c(O)c1 (stereo unspecified) [Isoproterenol (hydrochloride)]	1.72
C[C@@H]1CCO[C@H]2Cn3cc(C(=O)NCc4ccc(F)cc4F)c(=O)c(O)c3C(=O)N12	1.07
C[C@@H](O)[C@H]1C(=O)N2C(C(=O)O)=C(S[C@@H]3CN[C@H](CNS(N)(=O)=O)C3)[C@H](C)[C@H]12 [Doripenem (hydrate)]	-1.56
O=c1[nH]c(=O)n([C@H]2C[C@H](O)[C@@H](CO)O2)cc1I	5.55
OCCN(CCO)c1nc(N2CCCCC2)c2nc(N(CCO)CCO)nc(N3CCCCC3)c2n1	-3.82
CCOc1ccc(Cc2cc([C@]34OC[C@](CO)(O3)[C@@H](O)[C@H](O)[C@H]4O)ccc2Cl)cc1	4.89

Now for a further molecule.
In: Recorded difference in habituation to acoustic stimuli of CCOC(=O)c1ncn2c1CN(C)C(=O)c1cc(F)ccc1-2 , please.
Out: 2.54

Value source: the supplement of paper PMC10515830
